Provide the reported TGI of each item.
- System: EKVX NSCLC
- assay_procedure: NCI tumour cell line growth inhibition, 48 h
Where a SMILES comes first, the peptide text is derived from it. [ ]: non-standard residue; d: D form. The star is where a group is joined. ξ: configuration not given here. ξNMe2Val = CC(C)C(C(=O)*)N(C)C; NMeV = CN[CH](C(=O)O)C(C)C; NHBn = c1ccc(CN*)cc1

Look up and state reported TGI for Cc1nc2sccn2c1C(=O)NN > 100 µM

Look up and state reported TGI for NS(=O)(=O)OC[C@H]1C[C@@H](Nc2ccnc3cc(-c4cccc(SC(F)(F)F)c4)nn23)[C@H](O)[C@@H]1O 0.104 µM

Look up and state reported TGI for Cc1ccc(C)n1-c1ccccc1C1C=Cn2c(=O)nnc3c(OC(C)C)c(OC(C)C)c(O)c1c32 (centres undefined) > 100 µM

Look up and state reported TGI for CN1C(=O)C2(C)SC1(c1ccccc1)C1C(=O)N(c3ccccc3)C(=O)C12 (centres undefined) > 100 µM

Look up and state reported TGI for CSC1=N/C(=C\c2ccc(Cl)cc2)C(=O)N1CN1CCCCC1 53.3 µM

Look up and state reported TGI for O=C(CSCC(=O)N/N=C/c1ccc2c(c1)OCO2)N/N=C/c1ccc2c(c1)OCO2 > 100 µM

Look up and state reported TGI for C=CCN(c1cc(OC)c(NC(C)=O)cc1[N+](=O)[O-])S(C)(=O)=O > 100 µM

Look up and state reported TGI for OC(CNc1ccnc2cc(Cl)ccc12)CNc1ccnc2cc(Cl)ccc12 6.04 µM

Look up and state reported TGI for COc1ccc(C2SC(N)=Nc3c2c(C)nn3C(=O)c2ccccc2O)cc1OC (centres undefined) > 10 µM

Look up and state reported TGI for CC(C)C(NC(=O)C(C(C)C)N(C)C)C(=O)N(C)C(C(=O)N1CCCC1C(=O)N1CCCC1C(=O)NCc1ccccc1)C(C)C (centres undefined) (ξNMe2Val-V[NMeV]PP-NHBn; configuration not given here) > 100 µM

Look up and state reported TGI for OC12c3ccccc3C1CCCCC2N1CCCC1 (centres undefined) > 100 µM

Look up and state reported TGI for CCCCN1C(=O)C2Cc3c([nH]c4ccccc34)C(c3cccc(O)c3)N2C1=O (centres undefined) 31.9 µM

Look up and state reported TGI for CNC(=O)c1ccc(N2C(=S)N(c3cnc(C#N)c(C(F)(F)F)c3)C(=O)C23CCC3)cc1F > 100 µM

Look up and state reported TGI for CC(=O)OC[C@H]1CN(OC(C)=O)C[C@@H](n2cc(C)c(=O)[nH]c2=O)O1 > 100 µM

Look up and state reported TGI for C=C(c1ccc(OC)c(/C=C/C(=O)c2ccc3c(c2)OCO3)c1)c1cc(OC)c(OC)c(OC)c1 > 100 µM

Look up and state reported TGI for COC(=O)c1cc2c(=O)n(C)c3ccccc3n2c1C(=O)OC 78.2 µM

Look up and state reported TGI for CCOCCOCCOCc1nc(C#N)c(N)o1 > 100 µM

Look up and state reported TGI for O=c1nc2n3c4c(cccc4nc-2c(=O)[nH]1)CCC3 > 100 µM

Look up and state reported TGI for COc1ccc(C2(Cl)c3ccccc3N(c3ccccc3)c3ccccc32)cc1 2.9 µM

Look up and state reported TGI for CCOC(OC(C)=O)[C@@H]1C=C[C@H](C)N(c2ccc([N+](=O)[O-])cc2)O1 (some centres undefined) 39 µM

Look up and state reported TGI for Cc1c(C)c2ccc(OCC(O)COC(C)C)c(C)c2oc1=O (centres undefined) > 100 µM

Look up and state reported TGI for NNC(=O)C(=O)N/N=C(\CCCC(=O)Nc1ccc(Cl)cc1)CC(=O)c1ccc(F)cc1 > 100 µM

Look up and state reported TGI for Cc1cc(S(=O)(=O)Nc2n[nH]c(-c3ccc(Cl)cc3)n2)c(SSc2cc(Cl)c(C)cc2S(=O)(=O)Nc2n[nH]c(-c3ccc(Cl)cc3)n2)cc1Cl 89.6 µM

Look up and state reported TGI for NCCSSCc1ccccc1CSSCCN > 100 µM

Look up and state reported TGI for CSC12c3cc(C)n(-c4ccc([N+](=O)[O-])cc4)c3CC(C)(C)CN1C(=O)C2Oc1ccccc1 (centres undefined) > 100 µM

Look up and state reported TGI for c1csc(-c2nn3c(C45CC6CC(CC(C6)C4)C5)nnc3s2)c1 > 100 µM

Look up and state reported TGI for Cc1ccc(O)c(NC(=O)c2cccc(Nc3ccnc(C(F)(F)F)c3)c2)c1 59.4 µM

Look up and state reported TGI for C=CSCCC(N)C(=O)O (centres undefined) > 100 µM

Look up and state reported TGI for CC(C)[N+]([O-])(CCCNc1c2ccccc2nc2cccc([N+](=O)[O-])c12)C(C)C 0.528 µM

Look up and state reported TGI for Clc1c(Cl)[n+](Cc2ccc3ccccc3c2)cn1Cc1ccc2ccccc2c1 4.98 µM

Look up and state reported TGI for Cc1ccc2c(c1)SC1=Nc3sc4cc(C)ccc4[n+]3CN12 45.4 µM

Look up and state reported TGI for N#C/C(=C\c1cc(O)cc(O)c1)C(N)=O > 100 µM

Look up and state reported TGI for O=C(CCC(=O)Nc1ccc(Cl)c(Cl)c1)Cc1nc2ccccc2o1 > 100 µM

Look up and state reported TGI for COc1ccc(CNc2cnc3cc(N)ccc3n2)cc1 > 100 µM

Look up and state reported TGI for CNC(=O)c1c(C)oc2cc(Oc3ncnc4cc(OC)c(OC)cc34)ccc12 > 100 µM

Look up and state reported TGI for O=C(C=P(c1ccccc1)(c1ccccc1)c1ccccc1)c1ccc(-c2cccs2)cc1 7.09 µM

Look up and state reported TGI for O=C1[C@H]2ON(c3ccccc3)C(c3ccc([N+](=O)[O-])cc3)[C@H]2C(=O)N1c1ccc(Cc2ccc(N3C(=O)[C@@H]4ON(c5ccccc5)C(c5ccc([N+](=O)[O-])cc5)[C@@H]4C3=O)cc2)cc1 (some centres undefined) > 100 µM

Look up and state reported TGI for Cc1nn(CNc2ccccc2C(F)(F)F)c(=S)n1/N=C/c1cccc2cccnc12 > 100 µM

Look up and state reported TGI for N#CC(c1ccccc1)N(CCCCCCN(C(=O)c1ccccc1)C(C#N)c1ccccc1)C(=O)c1ccccc1 (centres undefined) > 100 µM

----------
Provide the reported TGI of each item.
- System: SN12C renal
- assay_procedure: NCI tumour cell line growth inhibition, 48 h
Where a SMILES comes first, the peptide text is derived from it. The star is where a group is joined. Fmoc = O=C(OCC1c2ccccc2-c2ccccc21)*; OtBu = CC(C)(C)O*

State TGI (SN12C renal) of CC[C@]12C=CCN3CC[C@@]4(c5cc(N=O)c(OC)cc5N(C)[C@H]4[C@@](O)(C(=O)OC)[C@@H]1OC(C)=O)[C@@H]32 . > 100 µM

State TGI (SN12C renal) of OC(CNc1ccnc2cc(Cl)ccc12)CNc1ccnc2cc(Cl)ccc12 . 3.7 µM

State TGI (SN12C renal) of CC(C)C(NC(=O)OCC1c2ccccc2-c2ccccc21)C(=O)NC(CCC(=O)OC(C)(C)C)C(=O)OC(C)(C)C (stereo unspecified) (Fmoc-Val-Glu(OtBu)-OtBu; configuration not given here) . > 31.6 µM

State TGI (SN12C renal) of O=C1NC2c3c(I)sc(I)c3C(=O)C2O1 (stereo unspecified) . 51.5 µM

State TGI (SN12C renal) of O=C1/C(=C/c2cccc(Cl)c2)CCCc2ccccc21 . 32.3 µM

State TGI (SN12C renal) of Cc1nc([N+](=O)[O-])cn1-c1nc2ccccn2c1[N+](=O)[O-] . > 100 µM

State TGI (SN12C renal) of CC1Cc2c(Cl)ncnc2N(C)c2ccc(Cl)cc21 (stereo unspecified) . 19.3 µM

State TGI (SN12C renal) of CNC(=O)c1c(C)oc2cc(Oc3ncnc4cc(OC)c(OC)cc34)ccc12 . > 100 µM

State TGI (SN12C renal) of CC(C)CC(NC(=O)C(C)(CI)Cc1ccccc1)C(=O)Nc1ccccc1 (stereo unspecified) . > 100 µM

State TGI (SN12C renal) of O=C(CN(/C=C/C(=O)C(F)(F)F)c1ccc(Cl)cc1)c1ccc(Cl)cc1 . 24.2 µM

State TGI (SN12C renal) of COc1ccccc1/C=C/c1ccnc2ccccc12 . 37.3 µM

State TGI (SN12C renal) of CCCCc1ccc(N=C(N)N)cc1 . > 100 µM

State TGI (SN12C renal) of COc1cc(OC)cc(OCc2nc3cc(C(F)(F)F)ccc3nc2-c2ccccc2)c1 . > 100 µM

State TGI (SN12C renal) of Cc1ccc(O)c(C(c2cccc(C(c3cc(C)ccc3O)c3cc(C)ccc3O)c2)c2cc(C)ccc2O)c1 . 3.4 µM

State TGI (SN12C renal) of COc1ccc(N=c2oc3ccccc3cc2C(N)=O)cc1 . > 100 µM

State TGI (SN12C renal) of CC1(C)OC2C(CCP(=O)(O)O)OC(c3nc(C(N)=O)cs3)C2O1 (stereo unspecified) . > 100 µM

State TGI (SN12C renal) of Oc1ccc(C=Nc2ccccc2O)cc1 . > 100 µM

State TGI (SN12C renal) of Fc1ccc(-c2c(-c3ccncc3)nc3n2CCS3)cc1 . > 25 µM

State TGI (SN12C renal) of Nc1nc(/C=C\c2ccc([N+](=O)[O-])s2)nc(N2CCN(c3ccccc3)CC2)n1 . 34.5 µM

State TGI (SN12C renal) of C=CCNC(=O)NCCCCC(NC(C)=O)C(=O)NCc1ccccc1 (stereo unspecified) . > 100 µM

State TGI (SN12C renal) of CC(=O)Nc1ccc2c(c1)/C(=C\c1ccc([N+](C)(C)C)cc1)c1ccccc1-2 . > 100 µM
